The reported measurements were obtained from patent US20210079088A1.

# assay-system: T1, soluble human IL-4Rα (sIL-4Rα; PEPRO TECH, Catalog Number: 200-04R) (human, UniProt P24394 26-232)
# T1 construct: Bought protein; also called shIL-4Rα; soluble hIL-4 Rα
# T1 sequence: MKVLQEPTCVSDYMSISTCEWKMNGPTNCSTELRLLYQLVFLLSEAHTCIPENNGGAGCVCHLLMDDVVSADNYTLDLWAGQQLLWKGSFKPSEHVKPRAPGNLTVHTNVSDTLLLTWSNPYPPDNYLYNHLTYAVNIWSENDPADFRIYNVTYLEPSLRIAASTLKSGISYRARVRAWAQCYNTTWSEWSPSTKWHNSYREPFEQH
# assay-comment: ELISA, coated sIL-4Rα, culture supernatant
Catalogue of OD450/OD450 Control antibody 1 readings, one per entry.

- L1021H1016 (antibody, V domains shown) VH: EVQLVQSGGGLVHPGGSLRLSCAGSGFTFSRNAMFWVRQAPGKGLEWVSGIGTGGATNYADSVKGRFTISRDNAKNSLYLQMNSLRAEDMAVYYCARGRYYFPWWGQGTLVTVSS VL: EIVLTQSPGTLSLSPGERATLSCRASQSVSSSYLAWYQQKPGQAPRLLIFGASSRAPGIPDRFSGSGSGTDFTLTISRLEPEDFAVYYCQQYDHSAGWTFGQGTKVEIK: 0.63 ratio to control antibody 1
- L1021H1029 (antibody, V domains shown) VH: EVQLVESGGGLVQPGGSLRLSCAASGFTFSRNAMFWVRQAPGKGLEWVSGIGTGGATSYADSVKGRFTISRDNAKNSLYLQMNSLRAEDMAVYYCARGRYYFPWWGQGTLVTVSS VL: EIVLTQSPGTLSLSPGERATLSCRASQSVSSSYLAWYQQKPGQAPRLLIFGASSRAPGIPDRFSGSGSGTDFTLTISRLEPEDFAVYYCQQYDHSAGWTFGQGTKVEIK: 1 ratio to control antibody 1

Proceeding to the next binder to report its OD450/OD450 Control antibody 1.
Input: Which OD450/OD450 Control antibody 1 is reported for this binder? L1020H1016 (antibody, V domains shown) VH: EVQLVQSGGGLVHPGGSLRLSCAGSGFTFSRNAMFWVRQAPGKGLEWVSGIGTGGATNYADSVKGRFTISRDNAKNSLYLQMNSLRAEDMAVYYCARGRYYFPWWGQGTLVTVSS VL: EIVLTQSPGTLSLSPGERATLSCRASQSVSSSYLAWYQQKPGQAPRLLIYGASSRATGIPDRFSGSGSGTDFTLTISRLEPEDFAVYYCQQYDHSAGWTFGQGTKVEIK
Output: 0.8 ratio to control antibody 1
